# MEASUREMENT TARGET: GNA12
# MEASUREMENT SETUP: ASO; also: test concentration or dose not given here
These antisense oligonucleotides have a phosphorothioate backbone; sugars and methylation of C are not fully specified.
One threshold, 0.5, splits the recorded remaining target (mRNA or protein) (fraction of control) values: lower ones are fulfilled, equal or higher ones are not fulfilled.

- RESIDUE SEQUENCE: "GGAAGTACTTCACCGACT"
  MEASUREMENT TARGET: "GNA12"
  QUALITATIVE LABEL: "not fulfilled"
- RESIDUE SEQUENCE: "GGTTCTCCTGCAGGATGG"
  MEASUREMENT TARGET: "GNA12"
  QUALITATIVE LABEL: "not fulfilled"
- RESIDUE SEQUENCE: "CTGGAACCACTTCTGGCG"
  MEASUREMENT TARGET: "GNA12"
  QUALITATIVE LABEL: "not fulfilled"
- RESIDUE SEQUENCE: "AAGATGTTCATGGACTCC"
  MEASUREMENT TARGET: "GNA12"
  QUALITATIVE LABEL: "fulfilled"
- RESIDUE SEQUENCE: "GTTGAAGAAGAGCTTGTT"
  MEASUREMENT TARGET: "GNA12"
  QUALITATIVE LABEL: "fulfilled"
- RESIDUE SEQUENCE: "CTCGCGGCCGTGGATGAT"
  MEASUREMENT TARGET: "GNA12"
  QUALITATIVE LABEL: "not fulfilled"
- RESIDUE SEQUENCE: "TGGTCTCGAAGATGTTCA"
  MEASUREMENT TARGET: "GNA12"
  QUALITATIVE LABEL: "not fulfilled"
- RESIDUE SEQUENCE: "GAAAGCCTCCCTGATGCC"
  MEASUREMENT TARGET: "GNA12"
  QUALITATIVE LABEL: "fulfilled"

----------
# MEASUREMENT TARGET: AKT1
# MEASUREMENT SETUP: ASO
These antisense oligonucleotides have a phosphorothioate backbone; sugars and methylation of C are not fully specified.
Categories are defined by ranges of remaining target (mRNA or protein) (fraction of control), namely class 1 = under 0.4, class 2 = from 0.4 up to 0.5, class 3 = 0.5 and over

- RESIDUE SEQUENCE: "GATAGTTTTCTTCCCTAC"
  QUALITATIVE LABEL: "class 3"
- RESIDUE SEQUENCE: "CCGAAAGTGCCCTTGCCC"
  QUALITATIVE LABEL: "class 2"
- RESIDUE SEQUENCE: "TACTCCCCTCGTTTGTGC"
  QUALITATIVE LABEL: "class 3"
- RESIDUE SEQUENCE: "ACGTTCTTCTCCGAGTGC"
  QUALITATIVE LABEL: "class 3"
- RESIDUE SEQUENCE: "GGCAGCCCCTTTGACTTC"
  QUALITATIVE LABEL: "class 2"
- RESIDUE SEQUENCE: "AAAGTTGAATGTTGTAAA"
  QUALITATIVE LABEL: "class 3"
- RESIDUE SEQUENCE: "CCCAGAGAGATGACAGAT"
  QUALITATIVE LABEL: "class 3"
- RESIDUE SEQUENCE: "GCCGTGAACTCCTCATCA"
  QUALITATIVE LABEL: "class 2"
- RESIDUE SEQUENCE: "GCCTCTCCATCCCTCCAA"
  QUALITATIVE LABEL: "class 1"
- RESIDUE SEQUENCE: "CTTTGACTTCTTTGACCC"
  QUALITATIVE LABEL: "class 1"
- RESIDUE SEQUENCE: "TAAAACCCGCAGGATAGT"
  QUALITATIVE LABEL: "class 1"
- RESIDUE SEQUENCE: "TTTTCTTCCCTACCCCGC"
  QUALITATIVE LABEL: "class 1"
